Assay: Inhibition of PIPK (unknown origin) by membrane capture assay
Set-up: species or system Homo sapiens
Measured metric: EC50

stdin: Quick one: EC50 for CC(=O)/N=c1/[nH]c(C)c(-c2ccc(Cl)c(S(=O)(=O)NCCO)c2)s1 ?
stdout: > 100 µM

====

Target: Phosphatidylinositol 4,5-bisphosphate 3-kinase catalytic subunit gamma isoform (Homo sapiens)
Sequence (P48736 whole entry, canonical isoform): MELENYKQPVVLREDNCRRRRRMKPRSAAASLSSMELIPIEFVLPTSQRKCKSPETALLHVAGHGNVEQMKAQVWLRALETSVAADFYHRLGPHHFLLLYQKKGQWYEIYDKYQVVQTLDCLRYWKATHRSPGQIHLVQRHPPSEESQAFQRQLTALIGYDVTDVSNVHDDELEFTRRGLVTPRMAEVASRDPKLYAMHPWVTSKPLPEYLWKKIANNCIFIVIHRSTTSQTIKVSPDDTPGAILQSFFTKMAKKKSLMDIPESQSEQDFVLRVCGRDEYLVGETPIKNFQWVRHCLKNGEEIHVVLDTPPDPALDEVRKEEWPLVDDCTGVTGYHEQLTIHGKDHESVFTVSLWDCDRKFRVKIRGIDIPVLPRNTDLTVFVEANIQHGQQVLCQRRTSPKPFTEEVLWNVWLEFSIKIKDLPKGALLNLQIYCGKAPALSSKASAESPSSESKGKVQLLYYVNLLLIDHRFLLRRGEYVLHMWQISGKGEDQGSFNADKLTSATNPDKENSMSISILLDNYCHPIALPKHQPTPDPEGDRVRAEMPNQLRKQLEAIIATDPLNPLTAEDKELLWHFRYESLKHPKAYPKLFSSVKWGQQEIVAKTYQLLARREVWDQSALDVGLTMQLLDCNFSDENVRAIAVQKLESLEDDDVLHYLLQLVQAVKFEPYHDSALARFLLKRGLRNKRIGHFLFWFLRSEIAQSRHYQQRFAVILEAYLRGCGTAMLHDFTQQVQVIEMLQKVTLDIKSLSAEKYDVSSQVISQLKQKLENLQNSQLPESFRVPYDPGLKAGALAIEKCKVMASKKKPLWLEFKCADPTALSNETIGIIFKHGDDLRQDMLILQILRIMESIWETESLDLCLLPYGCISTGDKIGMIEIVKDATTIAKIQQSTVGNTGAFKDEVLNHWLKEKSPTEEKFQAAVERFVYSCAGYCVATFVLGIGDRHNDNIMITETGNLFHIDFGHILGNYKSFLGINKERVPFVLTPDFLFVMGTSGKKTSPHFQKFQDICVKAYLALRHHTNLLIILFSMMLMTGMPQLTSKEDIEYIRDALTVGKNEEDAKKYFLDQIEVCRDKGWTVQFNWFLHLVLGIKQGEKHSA
Test: Inhibition of PI3K gamma (unknown origin) by drug competition for substrate binding based assay
Measured metric: pEC50
Please report pEC50 as the negative decimal logarithm of the molar concentration, giving only the number.

stdin: Suppose we examine the molecule CCC(=O)N1CCN(c2ccc(N3C(=O)CCc4cnc5ccc(-c6cnc7ccccc7c6)cc5c43)cc2C(F)(F)F)CC1 ; what pEC50 value has been reported?
stdout: 6.77
